- targetEntity: Homeobox protein Hox-A13 (Mus musculus) (UniProt Q62424)
- Sequence (Q62424 whole entry, looked up): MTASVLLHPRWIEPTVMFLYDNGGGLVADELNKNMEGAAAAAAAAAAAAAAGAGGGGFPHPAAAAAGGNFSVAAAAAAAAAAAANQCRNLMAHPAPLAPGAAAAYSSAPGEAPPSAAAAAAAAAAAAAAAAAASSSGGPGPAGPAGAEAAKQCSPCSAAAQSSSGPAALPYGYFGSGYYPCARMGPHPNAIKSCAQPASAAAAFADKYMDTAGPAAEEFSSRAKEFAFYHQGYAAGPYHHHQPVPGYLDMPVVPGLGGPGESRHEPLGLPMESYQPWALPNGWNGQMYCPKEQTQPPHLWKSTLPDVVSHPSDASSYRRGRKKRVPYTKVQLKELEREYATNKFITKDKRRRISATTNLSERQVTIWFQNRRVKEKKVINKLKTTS
- experimentalDetails: disruptors of Hoxa13 oligonucleotide interaction – biochemical, fluorescence polarization, labeled oligonucleotide, primary screen (AID 1185)
- assaySetup: Hoxa13:DNA binding, 15 min, higher = more signal, called active from +8 up or from −8 down
quantityKind: z-score
Simply state the number, no unit and no words.

Examples with their reported z-score follow.
{"compound": "CC(C)C[C@@H]1NC(=O)[C@@H]2C[C@H](C(=O)NCCCCN(C)C)[C@H](c3ccc(O)cc3)N2C1=O", "quantityKind": "z-score", "result": -1.49}
{"compound": "CC(C)C(CO)N1C(=O)[C@@H]2[C@H]3C(=O)OCC=C[C@H]3OC23C=CCN(c2ccc4ccccc4c2)C(=O)[C@@H]13 (some centres undefined)", "quantityKind": "z-score", "result": -3.29}
{"compound": "CN1C(=O)C2C=CC(C(O)c3ccc(Br)cc3)N(Nc3ccccc3)C2C1=O (centres undefined)", "quantityKind": "z-score", "result": -1.23}

Shifting focus to the compound that follows.
## Input API: value(readout= z-score, system= Homeobox protein Hox-A13 (Mus musculus) (UniProt Q62424), query= `CCCCC(=O)N(Cc1ccccc1F)[C@@H]1CC(C(=O)NCCO)=C[C@H](Oc2c(I)cc(CO)cc2OC)[C@H]1O` )
## Output -7.53

---

- experimentalDetails: binders from COS7 lysate, DM2A8 probe, primary screen, torsin A project, cell lysate, small-molecule microarray, fluorescence 635/667 (AID 1065)
- assaySetup: higher = more signal, COS7 lysate expressing mutant human TOR1A
composite z-score overview

{"compound": "CCCCN1CC=CC23O[C@@H]4/C=C\\CCCOC(=O)C4[C@H]2C(=O)N(C(C)CO)[C@@H]3C1=O (stereo not given in full)", "composite z-score": -0.809}
{"compound": "C=CCC(OC(C)=O)[C@@H]1[C@@H](N(Cc2cc3ccccc3o2)C(=O)c2cccc3ccccc23)c2cc(OCCCO)ccc2N1C(=O)Cc1ccc(OC)cc1 (stereo not given in full)", "composite z-score": -0.52}
{"compound": "C=CC[C@@]1(C(=O)NCc2ccccc2)N=C(c2ccc(OCCCO)cc2)O[C@@H]1c1ccccc1CN=[N+]=[N-]", "composite z-score": -0.651}

## Input Which composite z-score value is on record for CN1C(=O)C2C(C1=O)C1C=C(c3ccc(CO)cc3)C2C(C2CC2)N1Cc1sc2ccccc2c1Cl (stereo not given) ?
## Output 1.17

## Input Which composite z-score value is on record for `C=CCN1C(=O)[C@]2(COC(c3ccc(OCCCO)cc3)=N2)Cc2ccccc21` ?
## Output 0.33

## Input Which composite z-score value is on record for `COCCCNC(=O)[C@@]1(Sc2ccc(C)cc2)CC(=O)N(Cc2ccccc2)[C@@H]1c1ccc(CO)cc1` ?
## Output 0.685

## Input Which composite z-score value is on record for `COc1ccc([Si](C)(C)[C@@H]2[C@@H](CCO)O[C@]3(C(=O)N(Cc4ccc(N5C(=O)c6cccc7cccc5c67)cc4)c4ccccc43)[C@H]2C)cc1` ?
## Output 0.23

## Input Which composite z-score value is on record for `CC(C)[C@H]1COC(=O)N1C(=O)[C@H]1[C@@H](c2ccccc2)N(c2ccccc2)O[C@@H]1C` ?
## Output 0.182

## Input Which composite z-score value is on record for `CC(C)NC(=O)[C@@H]1c2ccccc2C(=O)N(C2CCCCC2)[C@H]1c1ccc(CO)cc1` ?
## Output 0.562

## Input Which composite z-score value is on record for CCOC1=C2C(c3ccc(C)cc3)N(S(=O)(=O)c3ccc(C)cc3)CC2n2c(=O)n(-c3ccccc3)c(=O)n2C1 (stereo not given) ?
## Output 0.475

## Input Which composite z-score value is on record for `O=C(NCCN1CCOCC1)[C@@H]1c2ccccc2C(=O)N(Cc2cc(F)cc(C(F)(F)F)c2)[C@H]1c1ccc(CO)cc1` ?
## Output 1.09

## Input Which composite z-score value is on record for `COc1ccc([Si](C)(C)[C@H]2[C@H](CC(=O)N3Cc4ccccc4C[C@H]3CO)O[C@@]3(C(=O)N(Cc4cccc(I)c4)c4ccccc43)[C@@H]2C)cc1` ?
## Output 2.29

## Input Which composite z-score value is on record for COCC1C2CC[C@H]3C(OCc4ccc(F)cc4C(F)(F)F)OC[C@]4(C)[C@H]3C2=C(CN4C(=O)OC(C)(C)C)[C@H](C)C1COC (stereo not given in full) ?
## Output 0.0838

## Input Which composite z-score value is on record for `O=C1O[C@@H](c2ccccc2)[C@@H](c2ccccc2)N2[C@@H](c3ccc(O)cc3)[C@]3(C(=O)Nc4ccc(C#CCCO)cc43)[C@@H](C(=O)O)[C@H]12` ?
## Output 0.489

## Input Which composite z-score value is on record for `C=C[C@@H](C)[C@@H](OC(=O)Nc1ccc(OC)cc1)c1ccc(O)c2ccccc12` ?
## Output 0.173

---

z-score overview
- experimentalDetails: calcein-AM signal in unstimulated myeloma cells – cell-based, calcein-AM fluorescence, 48 h, PK04 Diversity Set, profiling panel (AID 1166);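 note: cells grown under basal conditions without added stimulus; test concentration not given here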
- assaySetup: RPMI8226 myeloma viability, higher = more signal
Simply state the number, no unit and no words.

Examples with their reported z-score follow.
{"compound": "O=C(CS)NCCCCCCNC(=O)[C@H]1C[C@H]2C(=O)N3CCC[C@H]3C(=O)N2[C@H]1c1ccc(O)cc1", "z-score": 1.07}
{"compound": "O=C(NCc1ccccc1)[C@@H]1c2ccccc2C(=O)N(C2CCCCC2)[C@H]1c1ccc(CO)cc1", "z-score": -0.0572}
{"compound": "CS(=O)(=O)CCOC(=O)C1=CC(c2ccc(CO)cc2)=CC(c2cccs2)N(Cc2cccc(OC(F)(F)F)c2)C=C1C(=O)OCCS(C)(=O)=O (centres undefined)", "z-score": -3.27}
{"compound": "C=CCC(OC(C)=O)[C@@H]1[C@@H](N(Cc2ccc(-c3ccccc3)cc2)C(=O)c2ccc(C)cc2)c2cc(OCCCO)ccc2N1C(=O)Cc1ccc(OC)cc1 (some centres undefined)", "z-score": 0.815}
{"compound": "Cn1c2c(c3ccccc31)C(=O)C1NC2C=CC1(C)C(=O)OCc1ccccc1 (centres undefined)", "z-score": 0.0208}

## Input Which z-score value is on record for `CCOC(=O)C[C@H]1[C@H](OC(=O)c2ccccc2-c2ccccc2)[C@@H](NC(=O)c2ccc(-c3ccccc3)cc2)c2cc(OCCCO)ccc2N1C(=O)c1ccccc1` ?
## Output -0.602

## Input Which z-score value is on record for `C=C(CCCC)C(=O)CC[C@H](OC(=O)c1ccccc1-c1ccccc1C(=O)O)c1ccc(CO)o1` ?
## Output 0.334

## Input Which z-score value is on record for CC1(C)C(=O)C(c2ccccc2)=C2CN3C(=O)N(CCc4ccccc4)C(=O)C3(Cc3ccccc3)C=C21 (centres undefined) ?
## Output 0.0826

---

- targetEntity: Neurogenic locus notch homolog protein 3 (Homo sapiens)
- experimentalDetails: small molecules binding NOTCH3 protein – biochemical, 635/667 nm fluorescence, primary screen (AID 1096)
- assaySetup: small-molecule microarray, 635 nm fluorescence, higher = more signal
composite z-score overview
Simply state the number, no unit and no words.

Examples with their reported composite z-score follow.
{"compoundStructure": "COCCOC(=O)N1C(=O)[C@@]2(c3cc(C#CCCO)ccc31)[C@H](c1ccc(O)cc1)N1[C@H](c3ccccc3)[C@H](c3ccccc3)OC(=O)[C@H]1[C@@H]2C(=O)N1CCCCCCC1", "targetEntity": "Neurogenic locus notch homolog protein 3 (Homo sapiens)", "quantityKind": "composite z-score", "result": 0.991}
{"compoundStructure": "Cc1ccccc1/C=C/C=O", "targetEntity": "Neurogenic locus notch homolog protein 3 (Homo sapiens)", "quantityKind": "composite z-score", "result": -1.63}
{"compoundStructure": "C=CC[C@@]1(C(=O)NCc2ccccc2)N=C(c2ccc(OCCCO)cc2)O[C@@H]1c1ccccc1CN=[N+]=[N-]", "targetEntity": "Neurogenic locus notch homolog protein 3 (Homo sapiens)", "quantityKind": "composite z-score", "result": 0.901}

## Input Which composite z-score value is on record for `COCCOC(=O)N1C(=O)[C@@]2(c3cc(C#Cc4ccc(OC)cc4)ccc31)[C@H](c1ccc(O)cc1)N1[C@H](c3ccccc3)[C@H](c3ccccc3)OC(=O)[C@H]1[C@@H]2C(=O)N1CCN(c2ncccn2)CC1` ?
## Output 0.258

## Input Which composite z-score value is on record for `COc1ccc(C(=O)Nc2cccc(CN3C(=O)[C@@]4(O[C@@H](CC(=O)N5Cc6ccccc6C[C@H]5CO)[C@H]([Si](C)(C)c5ccc(OC)cc5)[C@H]4C)c4ccccc43)c2)cc1` ?
## Output 0.893

## Input Which composite z-score value is on record for `[N-]=[N+]=NCc1ccccc1C[C@]1(C(=O)NCc2ccccc2)COC(c2ccc(OCCCO)cc2)=N1` ?
## Output -0.146
